These measurements were taken from ChEMBL document CHEMBL5154645.

Target: Procathepsin L (Mus musculus) (UniProt P06797)
Sequence (whole entry): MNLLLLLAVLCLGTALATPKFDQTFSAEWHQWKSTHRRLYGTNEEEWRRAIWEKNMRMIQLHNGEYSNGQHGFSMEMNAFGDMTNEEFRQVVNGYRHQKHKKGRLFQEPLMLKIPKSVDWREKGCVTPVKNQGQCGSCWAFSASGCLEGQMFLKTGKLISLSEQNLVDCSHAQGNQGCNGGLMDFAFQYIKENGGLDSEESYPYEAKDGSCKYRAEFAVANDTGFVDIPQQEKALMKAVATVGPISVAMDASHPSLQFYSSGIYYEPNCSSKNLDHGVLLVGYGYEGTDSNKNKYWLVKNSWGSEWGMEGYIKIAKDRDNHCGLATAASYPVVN
Assay: Inhibition of mouse Cathepsin L assessed as ratio of Kinact/Kiapp using Z-FR-AMC as substrate inubated for 30 mins by fluorometric assay
readout.kind: Ratio

Worked set:
>  <molecule>
CC[C@H](C)[C@@H](C(=O)O[C@@H](CC(C)C)C(=O)N[C@@H](CC(C)C)C(=O)N[C@@H](C)/C=C/C(=O)N1C(=O)C=C(OC)[C@@H]1C)N(C)C [GALLINAMIDE A]

>  <Ratio>
1.07 10^6/s/M

$$$$
>  <molecule>
COC1=CC(=O)N(C(=O)/C=C/[C@H](C)NC(=O)[C@H](CC(C)C)NC(=O)[C@H](CC2CCCCC2)NC(=O)C2CCN(C)CC2)[C@H]1Cc1c[nH]c2ccccc12

>  <Ratio>
2.92 10^5/s/M

$$$$
>  <molecule>
COC1=CC(=O)N(C(=O)/C=C/[C@H](C)NC(=O)[C@H](CCc2ccccc2)NC(=O)[C@H](CC2CCCCC2)NC(=O)[C@H](C(C)C)N(C)C)[C@H]1Cc1c[nH]c2ccccc12

>  <Ratio>
1.36 10^5/s/M

$$$$
>  <molecule>
COC1=CC(=O)N(C(=O)/C=C/[C@H](CCc2ccccc2)NC(=O)[C@H](CC(C)C)NC(=O)[C@H](CC(C)C)NC(=O)[C@H](C(C)C)N(C)C)[C@H]1Cc1c[nH]c2ccccc12

>  <Ratio>
2.31 10^6/s/M

$$$$

Lab note: next molecule to report on.
Inquiry: Would you mind telling me what Ratio value was observed for COC1=CC(=O)N(C(=O)/C=C/[C@H](C)NC(=O)[C@H](CC(C)C)NC(=O)[C@H](CC(C)C)NC(=O)C2CCN(C)CC2)[C@H]1Cc1c[nH]c2ccccc12 ?
Reply text: 8.06 10^5/s/M
